# METHOD NOTES: Cytotoxicity against HEK293T cells after 30 hrs by resazurin dye based fluorescence assay
# Type: cell-based, HEK-293T
# DETAILS: human
ASSAY ENDPOINT: CC50 at 30 h (µM)
Your answer is read as µM, so omit the unit and give the number.

The reported CC50 at 30 h of the compound COC(=O)c1ccc(OC/C(C)=C/CC/C(C)=C/COC(C)=O)cc1O was 31.8

====

# System: Trypanosoma brucei brucei
# METHOD NOTES: Antiparasitic activity against bloodstream trypomastigote stage of wild type Trypanosoma brucei brucei Lister 427 after 48 hrs by resazurin dye based fluorescence assay
# Assay type: functional, organism-based
# DETAILS: Lister 427, 48 h
The reader will find reported EC50 values listed item by item below.
Please give the number followed by its unit.

Solved cases below.
The reported EC50 of the compound CCOC(=O)c1c(C)cc(OCCCCCCCCCCCCC[n+]2cccc3ccccc32)cc1O.[Br-] was 0.29 µM

The reported EC50 of the compound COC(=O)c1cc(OCCCCCCCCCCCCC[P+](c2ccccc2)(c2ccccc2)c2ccccc2)ccc1O.[Br-] was 0.028 µM

The reported EC50 of the compound COC(=O)c1ccc(OCCCCCCCCCCCCC[P+](c2ccccc2)(c2ccccc2)c2ccccc2)cc1F.[Br-] was 0.05 µM

The reported EC50 of the compound COC(=O)c1ccc(OCCCCCCCCCCCCC[n+]2cccc3ccccc32)cc1F.[Br-] was 2.4 µM

The reported EC50 of the compound COC(=O)c1ccc(OC/C(C)=C/CC/C(C)=C/COC(C)=O)cc1O was 19.3 µM

The reported EC50 of the compound O=Cc1ccc(OCCCCCCCCCCCCCBr)cc1O was 17.6 µM

The reported EC50 of the compound O=C(O)c1ccc(OCCCCCCCCCCCCC[P+](c2ccccc2)(c2ccccc2)c2ccccc2)cc1O.[Br-] was 0.086 µM

The reported EC50 of the compound O=C(NO)c1ccccc1O [SALICYLHYDROXAMIC ACID] was 62.9 µM

Further cases:
The reported EC50 of the compound O=C(O)c1ccc(OCCCCCCCCCC[P+](c2ccccc2)(c2ccccc2)c2ccccc2)cc1O.[Br-] was 0.73 µM

====

# METHOD NOTES: Cytotoxicity against HEK293T cells after 30 hrs by resazurin dye based fluorescence assay
# Assay type: cell-based, HEK-293T
# DETAILS: human
The reader will find reported log10 of CC50 at 30 h values listed item by item below.
Note: values are log10 of CC50 at 30 h expressed in µM.

The reported log10 of CC50 at 30 h of the molecule COC(=O)c1ccc(OCCCCCCCCCCCCC[P+](c2ccccc2)(c2ccccc2)c2ccccc2)cc1C.[Br-] was -0.46

The reported log10 of CC50 at 30 h of the molecule COC(=O)c1ccc(OCCCCCCCCCC[P+](c2ccccc2)(c2ccccc2)c2ccccc2)cc1O.[Br-] was -0.36

====

The reader will find reported IC50 values listed item by item below.
# TARGET SYSTEM: Alternative oxidase, mitochondrial (Trypanosoma brucei brucei, UniProt Q26710)
# Sequence (Q26710 whole entry): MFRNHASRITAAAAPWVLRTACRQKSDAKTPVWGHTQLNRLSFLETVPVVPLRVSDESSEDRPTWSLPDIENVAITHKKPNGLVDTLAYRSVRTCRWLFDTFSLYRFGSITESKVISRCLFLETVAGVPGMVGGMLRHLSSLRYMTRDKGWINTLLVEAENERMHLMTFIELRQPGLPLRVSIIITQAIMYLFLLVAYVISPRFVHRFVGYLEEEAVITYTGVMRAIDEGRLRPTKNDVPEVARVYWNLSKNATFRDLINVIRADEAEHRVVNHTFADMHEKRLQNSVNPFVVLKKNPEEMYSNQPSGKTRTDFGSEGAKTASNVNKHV
# METHOD NOTES: Inhibition of recombinant Trypanosoma brucei brucei alternative oxidase using ubiquinol-1 as substrate incubated for 2 mins followed by substrate addition by spectrophotometric method

Solved cases below.
The reported IC50 of the compound CCOC(=O)c1ccc(OC/C(C)=C/CC/C(C)=C/CO)cc1O was > 5 µM

The reported IC50 of the compound COC(=O)c1ccc(OCCCCCCCCCC[P+](c2ccccc2)(c2ccccc2)c2ccccc2)cc1O.[Br-] was > 5 µM

The reported IC50 of the compound COC(=O)c1ccc(OCCCCCCCCCCCCCBr)cc1O was > 5 µM

// moving on: another record for IC50
The reported IC50 of the compound COC(=O)c1ccc(OC/C(C)=C/CC/C(C)=C/CO)cc1F was > 5 µM
